The measurements presented in this section are drawn from patent US9180106B2.

systemName: σ-2 receptors (Homo sapiens, UniProt Q5BJF2)
Sequence (Q5BJF2 whole entry): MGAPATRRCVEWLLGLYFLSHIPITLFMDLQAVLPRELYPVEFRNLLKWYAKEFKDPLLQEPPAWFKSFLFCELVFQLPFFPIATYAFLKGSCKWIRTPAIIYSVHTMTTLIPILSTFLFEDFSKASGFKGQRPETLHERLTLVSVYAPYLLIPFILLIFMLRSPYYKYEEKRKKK
pKi: −log10 of the molar value.
metricName: pKi

Reported σ-2 receptors (Homo sapiens, UniProt Q5BJF2) pKi for item CN(C)CC1COC(c2ccccc2)(c2ccccc2)C1 (stereo not shown) was < 5.00
